Tested on: SK-OV-3
EXPERIMENTAL PROTOCOL: NCI tumour cell line growth inhibition, 48 h
Activity calls are given as the source filed them. Rule as the data show it: active = GI50 up to about 1.1 µM and inactive = higher.
Outcome codes: active, inactive

• Cc1cc(C)n(-c2ccnc3cc(Cl)ccc23)n1 = inactive
• O=c1[nH]c(=O)n([C@@H]2O[C@H](CO)[C@@H](O)[C@H]2O)cc1F = inactive
• C#Cc1nc(N)c2ncn(C3OC(COS(N)(=O)=O)C(O)C3O)c2n1 (stereo unspecified) = active
• CC(=O)OC1COC(Nc2nc(NCc3ccccc3)n(C)c(=O)c2N=O)C(OC(C)=O)C1OC(C)=O (stereo unspecified) = inactive
• O=C(O)c1cc(C(=O)C(=O)c2cc(C(=O)O)c(O)c3ccccc23)c2ccccc2c1O = inactive
• O=C1NC2(CCN(CCc3ccccc3)CC2)Oc2ccccc21 = inactive
• COC(=O)c1ccc(C)cc1C1CN=NC12Cc1cc(C)ccc1C2=O (stereo unspecified) = inactive
• ClC1(Cl)C(c2ccccc2)C1c1ccccc1 (stereo unspecified) = inactive
• CC1CCC(O)/C=C/C(=O)OC(C)C(O)/C=C/C(=O)O1 (stereo unspecified) = inactive
• O=c1cnn2c(n1)sc1ccc3ccccc3c12 = inactive
• Cc1c(O)c(O)cc[n+]1C1OC(CO)C(O)C1O (stereo unspecified) = inactive

* * *

Test system: A498
EXPERIMENTAL PROTOCOL: NCI tumour cell line growth inhibition, 48 h
Calls of active or inactive are those of the source. No stated cut-off is given here; in the data, active = GI50 up to about 1.1 µM and inactive = higher.
ENDPOINT NAME: GI50

- COC(=O)C1=C(C(=O)OC)C2OC1C1C2C2(C)C(C)=C(C)C1(C)[S+]2[O-] (stereo unspecified): 27.5 µM (inactive)
- O=[N+]([O-])c1cc(C2(N3CCCCC3)CCCCC2)sc1Br: 5.92 µM (inactive)
- CCC(=O)C(c1ccccc1)c1ccccn1 (stereo unspecified): > 100 µM (inactive)
- COC(OC)[C@@H]1OC[C@@H](O)[C@@H]1n1cnc2c(N)ncnc21: > 100 µM (inactive)
- NCCCCN(CCCN)Cc1ccccc1: > 100 µM (inactive)
- CC1=C(C#N)C(=O)N(/N=C/c2ccc(Cl)cc2)C(=O)/C1=c1\o/c(=C2/C(=O)N(/N=C/c3ccc(Cl)cc3)C(=O)C(C#N)=C2C)c2nccnc12: > 100 µM (inactive)

* * *

System: SR
EXPERIMENTAL PROTOCOL: NCI tumour cell line growth inhibition, 48 h
Calls of active or inactive are those of the source. No stated cut-off is given here; in the data, active = GI50 up to about 1.1 µM and inactive = higher. Peptide text beside a SMILES is read from it. * marks the point of attachment. Boc = CC(C)(C)OC(=O)*; OBn = c1ccc(CO*)cc1; Bn = c1ccc(C*)cc1
# GI50 per record follows
ENDPOINT NAME: GI50

- COc1ccc(-c2nnc(-c3nsc4ccccc34)o2)cc1: 31.9 µM (inactive)
- CSC(=N)NNC(=O)CCC(=O)Nc1ccccc1C(F)(F)F: > 100 µM (inactive)
- CO[P@@]1(=O)O[C@@H](c2ccccc2)[C@H](O)[C@]1(O)c1ccccc1: > 100 µM (inactive)
- C[C@]12C=CC(=O)C=C1CC[C@@H]1[C@@H]2C(=O)C[C@@]2(C)[C@H]1CC[C@]2(O)C(=O)CO [PREDNISONE]: > 100 µM (inactive)
- CC(C)CC(NC(=O)C(CCC(=O)OCc1ccccc1)NC(=O)OC(C)(C)C)C(=O)NC(COCc1ccccc1)C(=O)NC(Cc1ccccc1)C(=O)O (stereo not drawn) (Boc-E(OBn)LS(Bn)F-OH; configuration not given here): > 100 µM (inactive)
- O=C1c2ccccc2CN1c1ccc(OCCN2CCCCC2)cc1: > 10 µM (inactive)
- COc1cc2cc(C(=O)N3CC(CCl)c4ccccc43)[nH]c2c(OC)c1OC (stereo not drawn): 18.1 µM (inactive)
- O=C(O)c1ccccc1NC(c1ccccc1)c1ccc2cccnc2c1O (stereo not drawn): 2.06 µM (inactive)

* * *

# GI50 per record follows
Tested on: CCRF-CEM
EXPERIMENTAL PROTOCOL: NCI tumour cell line growth inhibition, 48 h
Active and inactive are the calls of the source. Cut-off read from the data, not from the text of the source: active = GI50 up to about 1.1 µM and inactive = higher.
ENDPOINT NAME: GI50

- O=[N+]([O-])c1ccc(C2c3c(O)nc(O)nc3Oc3nc(O)nc(O)c32)cc1: 13.8 µM (inactive)
- N/C(=N\O)NCCN1CCCCCCC1: > 100 µM (inactive)
- C/C(=N/NC(=O)c1ccccc1Nc1ccccc1C(=O)N/N=C(\C)c1ccc(C)cc1)c1ccc(C)cc1: 25.2 µM (inactive)
- CCCNC(=O)CCC(C)C1CCC2C3C(C[C@H](OC(C)=O)[C@]12C)[C@@]1(C)CCC2(C[C@H]1C[C@H]3OC(C)=O)OOC1(CC[C@]3(C)C4C[C@H](OC(C)=O)[C@]5(C)C(C(C)CCC(=O)NCCC)CCC5C4[C@H](OC(C)=O)C[C@@H]3C1)OO2 (some centres undefined): > 100 µM (inactive)
- Cc1cc(Cl)nc2nc(Cl)c(N)cc12: 1.67 µM (inactive)
- Nc1ccc(C2(c3ccc(N)cc3)C3CC4CC(C3)CC2C4)cc1: 3.76 µM (inactive)
- O=[N+]([O-])c1ccccc1S(=O)(=O)N1CCCc2cc(Cl)ccc21: 8.91 µM (inactive)
- COC(=O)C(C(=O)C(=O)Nc1nnc(S)[nH]1)c1csc(N)n1 (centres undefined): > 100 µM (inactive)
- COc1ccccc1/N=N/C(C(=O)c1ccccc1)C(=O)c1ccccc1: 7.91 µM (inactive)
- COc1ccc(N[C@H](CSc2ccc(C)cc2)c2ccc(F)cc2)cc1: > 100 µM (inactive)
- N#CC(NNC(=O)Cc1ccccc1)c1ccc(O)cc1 (centres undefined): > 100 µM (inactive)
- CCC12C=CCN3CCC4(C(=C(C(=O)OC)C1)Nc1ccccc14)[C@H]32 (some centres undefined): 22.2 µM (inactive)
- O=C1OCC(O)=C1C(c1ccc(Cl)cc1)c1cc2c(cc1O)OCO2 (centres undefined): > 100 µM (inactive)
- Cc1ccc(/N=N/c2c(O)c3ccccc3[nH]c2=O)c(S(=O)(=O)N(C)C)c1: > 100 µM (inactive)
- CCOC(=O)c1ccc(OCc2nc3cc(C(F)(F)F)ccc3nc2-c2ccccc2)cc1: > 100 µM (inactive)
- C[C@H](CC[C@@H](O)C(C)(C)O)[C@H]1CC[C@@]2(C)[C@@H]3CC=C4[C@@H](CC[C@H](O)C4(C)C)[C@]3(C)C(=O)C[C@]12C: 16.5 µM (inactive)
- CC(C)c1ccc2c(c1)CCC1C(C)(CN)CCCC21C (centres undefined): 1.55 µM (inactive)
- S=C(N/N=C(\C(=N/NC(=S)N1CCCCC1)c1ccccn1)c1ccccn1)N1CCCCC1: 3.91 µM (inactive)
- Cc1ccc(C)n2c1nc1ccc3ccccc3c12: > 100 µM (inactive)

* * *

Tested on: NCI/ADR-RES
EXPERIMENTAL PROTOCOL: NCI tumour cell line growth inhibition, 48 h
Active and inactive are the calls of the source. No stated cut-off is given here; in the data, active = GI50 up to about 1.1 µM and inactive = higher.
Outcome codes: 1 (active), 0 (inactive)

- N/C(=N\O)NCCN1CCCCCCC1: 0
- CNc1cccc(-c2cc(O)c3cc4c(cc3n2)OCO4)c1: 1
- Cc1nc2ccc(Cl)cc2c(Cl)c1CCCl: 0
- CCCNC(=O)CCC(C)C1CCC2C3C(C[C@H](OC(C)=O)[C@]12C)[C@@]1(C)CCC2(C[C@H]1C[C@H]3OC(C)=O)OOC1(CC[C@]3(C)C4C[C@H](OC(C)=O)[C@]5(C)C(C(C)CCC(=O)NCCC)CCC5C4[C@H](OC(C)=O)C[C@@H]3C1)OO2 (some centres undefined): 0
- CCCCC1=C(Br)C(=C(Br)Br)OC1=O: 0
- C=C1CC2(OC1=O)c1ccccc1C=Cc1ccccc12: 0
- CSc1ccc(NC(=O)CCl)cc1: 0
- C[C@]12CC[C@@H]3c4cc(OCC(F)(F)F)c(O)cc4C(=O)C[C@H]3[C@@H]1CC[C@@H]2O: 0
- O=C(O)C1CCCN(CCc2c[nH]c3ccccc23)C1 (centres undefined): 0
- COc1cc2cc(C(=O)N3CC(CCl)c4c3cc([N+](C)(C)Cc3ccc([N+](=O)[O-])n3C)c3ccccc43)[nH]c2c(OC)c1OC (centres undefined): 1
- COC(=O)c1ccc(C)cc1C1CN=NC12Cc1cc(C)ccc1C2=O (centres undefined): 0
- N#CC(C#N)=C(N)/C(C#N)=C/c1ccc2[nH]ccc2c1: 0
- CN(C)CCCNC1=C(Cl)C(=O)c2c(O)ccc(O)c2C1=O: 0
- O=c1oc(-c2ccc(O)cc2)cc2cc(O)ccc12: 0
- C(#Cc1ccccc1)SC1=C(c2ccccc2)S/C(=C(\SC#Cc2ccccc2)c2ccccc2)S1: 0
- CC(C)(C)[Si](C)(C)OC1CCOC1(O)c1ccccn1 (centres undefined): 0
- OCC(O)COCn1nncc1Cn1ncc2c(SCc3ccccc3)ncnc21 (centres undefined): 0
- CC1(C)OCC(/C=C\C(O)CC2(C)OCCO2)CO1 (centres undefined): 0
- O=C(NC/C(Cl)=C/Cl)Nc1cccc2c1CCCC2: 0
- Cc1cc(N(CCC#N)CCC#N)ccc1/C=N/NC(=O)c1cc(Cl)ccc1O: 0
- CC1OC(OC2C(OC(=O)[C@]34CCC(C)(C)C[C@H]3C3=CC[C@@H]5[C@@]6(C)CC[C@H](OC7OC(C(=O)O)C(O)C(O)C7O)C(C)(C)[C@@H]6CC[C@@]5(C)[C@]3(C)CC4)OCC(O)C2O)C(O)C(O)C1OC1OCC(O)C(O)C1O (some centres undefined): 0
- CC(C)=CCc1c(OC(=O)c2c(C)cc(O)cc2O)cc(CO)c(CO)c1O: 0
- CCOC(=O)C1C(=O)CC(C)(O)C(C(=O)OCC)C1c1ccc(OC)cc1 (centres undefined): 0
- CC1=NN2C(=O)CC(=O)N=C2S1: 0
- COc1cc2cc(C(=O)N3CC(CCl)c4ccccc43)[nH]c2c(OC)c1OC (centres undefined): 0
- CCOC(=O)C1(C(=O)OCC)CCCN1C(=O)[C@H](CNC(=O)OC(C)(C)C)NC(=O)OCc1ccccc1: 0
- CCC(=O)Nc1ccc(N2C(=O)/C(=C/c3ccc(O)c(OC)c3)N=C2c2ccccc2)cc1: 0
- Cn1ccc(C(=O)NCCN(CCNC(=O)c2ccn(C)c(=O)c2O)CCNC(=O)c2ccn(C)c(=O)c2O)c(O)c1=O: 0
- CN1CCN2CCN(C)CCN(CC1)CC2: 0
- C=C[C@@]1(C)CC(=O)[C@]2(O)[C@@]3(C)[C@@H](OC(C)=O)CCC(C)(C)[C@@H]3[C@H](OC(C)=O)[C@H](OC(C)=O)[C@@]2(C)O1: 0
- CC1CCC(O)/C=C/C(=O)OC(C)C(O)/C=C/C(=O)O1 (centres undefined): 0
- N#Cc1c2ccc([N+](=O)[O-])cc2c(=O)n2c1[nH]c1ccc(C(F)(F)F)cc12: 0
- Nc1c2ccccc2nc2c1ccc1ncccc12: 0
- CC(=O)OCC(OC(C)=O)C(OC(C)=O)C(/C=N\Nc1nc2ccccc2c(=O)[nH]1)=N\Nc1nc2ccccc2c(=O)[nH]1 (centres undefined): 0
- Cc1cc(C)nc(NS(=O)(=O)c2ccc(NC(=O)c3c4ccccc4nc4ccccc34)cc2)n1: 0
- CC1=CC(c2ccccc2)n2c(nc3cc4ccccc4cc32)N1 (centres undefined): 0
- COc1ccc(C(SC2C(O)C(CO)OC2n2ccc(N)nc2=O)(c2ccccc2)c2ccc(OC)cc2)cc1 (centres undefined): 0
- CC(OC(=O)C(CC(=O)OC(C)(C)C)NC(=O)OC(C)(C)C)C(=O)OCc1ccccc1 (centres undefined): 0
- CCN(CC)CCn1nc(N)c2nc3ccccc3nc21: 0
